B1: Intersectin-1, residues 1156 to 1213; numbered along this chain, Q15811 (parent)
chain: AVCQVIGMYDYTAQNDDELAFNKGQIINVLNKEDPDWWKGEVNGQVGLFPSNYVKLTT

variants of: B1; experiment: abundance fitness (aPCA) (normalised: wild type 0, dead -1); higher = more abundant; growth selection in yeast, the domain comes from the species named; conditions: Homo sapiens
Classification field: enter rule met for abundance fitness values not below -0.08, rule not met for values below it.

Please review the entries below; each comes with its answer.
• P50W = rule not met
• Y53R = rule met
• E41I = rule not met
• N28S = rule met
• G7C = rule met
• E33Q = rule met
• G47V = rule not met
• Q4Y = rule not met
• N43P = rule not met
• N31L = rule not met

Exam item: Please indicate if the recorded abundance fitness for `F21M` meets or exceeds -0.08.
Marked response: rule not met

Exam item: Determine whether measured abundance fitness meets or exceeds -0.08 for `K55T`
Marked response: rule not met

Exam item: Is it the case that `Y11K` has abundance fitness reaching or exceeding -0.08?
Marked response: rule not met

Exam item: Could you tell me if the measured abundance fitness of `L56T` reaches -0.08 or more?
Marked response: rule met

Exam item: State whether the measured abundance fitness reaches -0.08, counting equality as reaching it, for `N52I`
Marked response: rule not met
